# pEC50 per entry
# System: THP-1 cell line
# PROTOCOL: Macrophage toxicity assay (PrestoBlue)
# TEST_SETTINGS: read-out: THP1 EC50, PMA-differentiated THP-1 macrophages, 72 hours
pEC50: −log10 of the molar value.

[
  {
    "SMILES_INPUT": "CCN(CC)S(=O)(=O)c1ccc(C(=O)Nc2cc(C)nn2-c2nc(C)c(C)c(=O)[nH]2)cc1",
    "pEC50": "< 4.30"
  }
]

Please find the next compound below.
### Prompt THP-1 cell line / pEC50 / `Cc1ccc(NC(=O)c2nc[nH]c2C(=O)Nc2nc3ccccc3[nH]2)c(C)c1` : value?
### Response < 4.30
